Reported koff values are given for each entry in this list.
target: T1, baboon EL (baboon); test: Biacore; EL captured by anti-C2-tag Ab; bivalent fit
T1 construct: Heparin extract
testReadout: koff (s⁻¹)

binder: 16B3 (antibody, mouse IgG2a, V domains shown, mouse IgG2a from hybridoma; also called 16B3 (mouse mAb)) VH: DVKLVESGGGLVQPGGSLKLSCTASGFTFSGYTMSWVRQTPEKRLELVAEISFARDRAFYPDTVKGRFTISRDNAKNTLYLQMSSLKSEDTAMYYCTRLGGRNHDYWYFDVWGTGTTVTVSS VL: DIVLTQSPTSLAVSPGQRATISCRASESVEYYGTSLMQWYQQKPGQRPQLLIYAASNVESGVPARFSGSGSGTDFSLNIHPVEEDDIAVYFCQQSWKVPFTFGSGTKLEIK
displayUnit: s⁻¹
measuredNumber: 9.8e-05
//
binder: 23H8 (antibody, mouse IgG2a, V domains shown, mouse IgG2a from hybridoma; also called 23H8 (mouse mAb)) VH: EVQLQQSGPELLKPGASVKISCKASGYTFTDNTIHWVKQSHGKSLEWIGHINPYYGGTNNNEKFKDKATLTVDKSSSTAYMELRSLTSEDSAIYYCARKGIYYSSPFDYWGQGTTLTVSS VL: DIQMTQTTSSLSASLGDRVTISCRASQDINNYLNWYQQKPDGTVKLLISYTSKLHSGVPSRFSGSGSGTDYSLTISNLEREDFATYFCQQGNTLPFTFGSGTNLEIK
displayUnit: s⁻¹
measuredNumber: 0.00044
//
binder: 14A1 (antibody, mouse IgG1, V domains shown, mouse IgG1 from hybridoma) VH: QIQLVQSGPELKKPGETVKISCKASGYTFTNYGMNWVKQAPGKGLKWMGWINTYSGVPTYADDFKGRFAFSLETSASTAYLQINNFKNEDTATYFCARFSYYGRHYFDYWGQGTALTASS VL: DIVLTQSPASLAVSLGQRATISCKASQSVDYDGDSYMNWYQQKPGQPPKLLIYAASNLKSGIPARFSGSGSGTDFTLNIHPVEEEDAATYYCQQTTDDPPWTFGGGTKLEIK
displayUnit: s⁻¹
measuredNumber: 0.00062
//
binder: 14E1 (antibody, mouse IgG1, V domains shown, mouse IgG1 from hybridoma) VH: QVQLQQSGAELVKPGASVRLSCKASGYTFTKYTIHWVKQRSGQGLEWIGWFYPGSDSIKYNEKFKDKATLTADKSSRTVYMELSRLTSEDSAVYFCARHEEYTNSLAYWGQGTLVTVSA VL: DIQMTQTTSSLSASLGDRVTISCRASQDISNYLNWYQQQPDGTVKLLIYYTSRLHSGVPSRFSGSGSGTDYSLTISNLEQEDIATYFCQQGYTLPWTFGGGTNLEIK
displayUnit: s⁻¹
measuredNumber: 0.00085
//
binder: 16E7 (antibody, mouse IgG1, V domains shown, mouse IgG1 from hybridoma) VH: EVKLVESGGGLVQPGGSLKLSCAASGFTFSSYTMSWVRQTPEKRLELVAEISFTRSRAFYPDTVKGRFTISRDNAKNTLYLQMSSLKSEDTAMYYCARLGGNNYDYWYFDVWGTGTTVTVSS VL: DIVLTQSPTSLAVSLGQRATISCRASESVEYYGTSLMQWYQQKPGQRPKLLIYAASNVESGVPARFSGSGSGTDFSLNIHPVEEDDIAMYFCQQSWKVPFTFGSGTKLEIK
displayUnit: s⁻¹
measuredNumber: 0.00025
